Source of measurements: patent US20100249175A1

System: telomeric G-quadruplex DNA sequence d[AG3(T2AG3)3] (SEQ ID NO: 1)
Test: CD titration of compounds into human telomeric G-quadruplex DNA (induced CD)
Type: binding
Set-up: key: ++: Relative strength of the induced CD is indicated by the number of (+) marks; +++: Relative strength of the induced CD is indicated by the number of (+) marks; ++++: Relative strength of the induced CD is indicated by the number of (+) marks
Settings: G-Quadruplex Affinity
Parameter measured: Induced CD (no exciton)

Reference set, count: 5
>  <Compound>
c1cc(-c2ccc(-c3nc4ccc(C5=NCCN5)cc4[nH]3)o2)ccc1C1=NCCN1

>  <Induced CD (no exciton)>
++++

$$$$
>  <Compound>
N=C(N)c1ccc2nc(-c3ccc(-c4ccc(C(=N)N)c(F)c4)o3)[nH]c2c1

>  <Induced CD (no exciton)>
+++

$$$$
>  <Compound>
COc1ccc(-c2nc3ccc(-c4nc5ccc(C(=N)N)cc5[nH]4)cc3[nH]2)cc1

>  <Induced CD (no exciton)>
++++

$$$$
>  <Compound>
N=C(N)c1ccc(-c2ccc(-c3nc4ccc(C(=N)N)cc4[nH]3)o2)cc1

>  <Induced CD (no exciton)>
+++

$$$$
>  <Compound>
CC1=CC(C(=N)N)=CN2C=C(c3ccc(-c4ccc(C(=N)N)cc4)o3)NC12 (stereo not shown)

>  <Induced CD (no exciton)>
+++

$$$$

-- ask Sample `c1ccc2[nH]c(-c3ccc(-c4ccc(C5=NCCN5)cc4)o3)nc2c1` — what was its Induced CD (no exciton)?
-- reply +++

-- ask Requested read-out: Induced CD (no exciton). Entry: `N=C(N)c1ccc2nc(-c3ccc(-c4ccc(C(=N)N)o4)o3)[nH]c2c1`
-- reply ++

###

Reported values of IC50 for individual entries
Test system: Trypanosoma brucei rhodesiense (T. b. r.)
Experiment: In vitro antiprotozoal activity against T. b. r.
Type: cell-based
The reply should be a number in nM, with the unit left off.

Solved cases below.
>  <Compound>
N=C(N)c1ccc(-c2ccc(-c3ccc(C(=N)N)o3)o2)cc1

>  <System tested>
Trypanosoma brucei rhodesiense (T. b. r.)

>  <Data value>
12

$$$$
>  <Compound>
N=C(N)c1ccc2nc(-c3ccc(-c4ccc(C(=N)N)c(F)c4)o3)[nH]c2c1

>  <System tested>
Trypanosoma brucei rhodesiense (T. b. r.)

>  <Data value>
52.5

$$$$
>  <Compound>
N=C(N)c1ccc(-c2ccc(-c3nc4ccc(C(=N)N)cc4[nH]3)o2)cc1

>  <System tested>
Trypanosoma brucei rhodesiense (T. b. r.)

>  <Data value>
122

$$$$
>  <Compound>
N=C(N)c1ccc2nc(-c3ccc(-c4ccc(C(=N)N)o4)o3)[nH]c2c1

>  <System tested>
Trypanosoma brucei rhodesiense (T. b. r.)

>  <Data value>
102

$$$$

-- ask Short answer please: IC50, Trypanosoma brucei rhodesiense (T. b. r.), entry `COc1ccc(-c2nc3ccc(-c4nc5ccc(C(=N)N)cc5[nH]4)cc3[nH]2)cc1`
-- reply 16

-- ask Could you share what IC50 was measured for `c1cc(-c2ccc(-c3ccc(C4=NCCN4)o3)o2)oc1C1=NCCN1` , tested on Trypanosoma brucei rhodesiense (T. b. r.)?
-- reply 793

-- ask Provide the documented IC50 with Trypanosoma brucei rhodesiense (T. b. r.) as the system for CC1=CC(C(=N)N)=CN2C=C(c3ccc(-c4ccc(C(=N)N)cc4)o3)NC12 (centres unmarked)
-- reply 9

-- ask Which measured IC50 belongs to `N=C(N)c1ccc(-c2ccc(-c3ccc(C(=N)N)o3)cc2)cc1` , tested on Trypanosoma brucei rhodesiense (T. b. r.)?
-- reply 5

###

Test system: Plasmodium falciparum (P. f.)
Assay: In vitro antiprotozoal activity against P. f.
Assay type: cell-based
Conditions: read-out: P.f. (IC50)
Counter-ions that a name gives are not always drawn.
Parameter measured: pIC50
Conceptually, pIC50 converts a concentration in mol/L into minus its log10.

-- ask Query (molecule): N=C(N)c1ccc(-c2ccc(-c3ccc(-c4ccc(C(=N)N)cc4)o3)o2)cc1 [Compound 17, hydrochloride salt] ; field requested: pIC50
-- reply 7.70
